tested on: normal breast epithelial cells MCF-10 A; experiment: MTT cytotoxicity assay, MCF-10 A; format: cell-based, human; details: Homo sapiens, MCF-10A, 72 h; read-out: IC50
OUTCOME MEASURE: IC50 (µM)
Use µM as the unit, but write only the number.

IC50 for O=NN(CCCl)C(=O)NC1CCCCC1 [CCNU] ?
48.9

====

system: breast cancer cells MCF-7; test: MTT cytotoxicity assay, MCF-7; format: cell-based, human; settings: Homo sapiens, MCF7, 72 h; read-out: IC50
OUTCOME MEASURE: pIC50
The meaning of pIC50 here: minus log10 of the concentration in molar units.

# value lookup — system breast cancer cells MCF-7, readout pIC50, item O=NN(CCCl)C(=O)NC1CCCCC1
5.08
